Reported TGI values are given for each entry in this list.
- System: HOP-92 NSCLC
- assay_method_text: NCI tumour cell line growth inhibition, 48 h
# output: bare number, implied unit µM

Supply recorded TGI for `COc1cc2c(cc1Nc1nc(Nc3ccsc3C(N)=O)c3cc[nH]c3n1)N(C(=O)CN(C)C)CCC2` here.
1.19

Answer with the recorded TGI for the molecule listed here: `O=C1N[C@@H](c2c[nH]c3ccc(Br)cc23)C(=O)N[C@H]1c1c[nH]c2ccc(Br)cc12`
15.5

Given the molecule COc1ccc(/C=C2\CC(C)CC3C2=NN(C(C)=O)C3c2ccc(OC)c(OC)c2)cc1OC (stereo not given) , write its reported TGI.
33.5

Output measured TGI for this item: COc1ccc(C2CC(c3ccc(OC)c(OC)c3)=NN2C(=O)c2cc(OC)c(OC)c(OC)c2)cc1 (stereo not given)
0.841

Give me measured TGI, please, for this molecule: Cc1ccc(S(=O)(=O)NC(CCCCN)C(=O)CCl)cc1 (stereo not given)
67.1

Provide only the value of recorded TGI for `CN(C)CCCn1c2c(c3ccncc3c1=O)C(=O)c1ccccc1-2`
2.39

----------
- Tested on: U251 CNS
- assay_method_text: NCI tumour cell line growth inhibition, 48 h
Below: a set of entries, each annotated with reported TGI.

Recorded results for 5 compounds are shown here.
COc1ccc(-c2nccn2-c2cc(OC)c(OC)c(OC)c2)cc1: > 100 µM
N#Cc1ccccc1C#C/C=C\C#Cc1cnccn1: > 100 µM
O=C1N[C@@H](c2c[nH]c3ccc(Br)cc23)C(=O)N[C@H]1c1c[nH]c2ccc(Br)cc12: 21.9 µM
Oc1ccc(-c2nc(-c3ccc4oc5ccc(-c6[nH]c(-c7ccc(O)cc7)nc6-c6ccccc6)cc5c4c3)c(-c3ccccc3)[nH]2)cc1: 15 µM
Fc1ccccc1N=c1oc2ccc(Br)cc2cc1-c1nc2ccccc2[nH]1: 20.1 µM

Identify measured TGI corresponding to O=c1c2ccccc2nc(-c2ccccc2Cl)n1NC1OC(CO)C(O)C(O)C1O (configuration not stated)
> 100 µM

----------
- Tested on: T-47D breast
- assay_method_text: NCI tumour cell line growth inhibition, 48 h
measured_quantity: TGI (µM)
Quick reminder: number only, in µM, skip the unit.

The examples below pair each entry with its known result.
Cc1cc(C)n(CN(Cn2nc(C)cc2C)c2ccc(N(Cn3nc(C)cc3C)Cn3nc(C)cc3C)cc2)n1: 51.8
COCN1C(=O)[C@@H]2C[C@@H](OC/C=C/CBr)CN2C(=O)c2ccccc21: 59
CCCCCCn1c(=N)n(CC(O)COc2cccc(C)c2)c2ccccc21 (stereo not given): 4.86
COc1cc(C=Nc2ccc(Oc3ccc(Cl)cc3)c(Cl)c2)cc(OC)c1OC: 39.7

# context switch: different molecule, same TGI
Query TGI for `Cn1cnc2nc(Cl)nc(Cl)c21`
26.8

----------
TGI overview
- Test system: LOX IMVI melanoma
- assay_method_text: NCI tumour cell line growth inhibition, 48 h

CCN(CC)CC(C(=O)Nc1c(C)cccc1C)/C(C)=N/NC(N)=S (stereo not given): > 100 µM
CC/C(=C(\c1ccccc1)c1ccc(OCC[N+](C)(C)C)cc1)c1ccccc1: 27.7 µM
O=C1c2ccccc2CC1C1(O)C(=O)Nc2c(Cl)cc(Cl)cc21 (stereo not given): > 100 µM
Cc1ccc(-c2c(C#N)c(O)n(NS(=O)(=O)c3ccccc3)c(=O)c2C#N)cc1: > 100 µM
CCOc1c(OC)cc(CNNc2nccs2)cc1OC: > 100 µM
C[N+](C)([O-])Cc1cccc(NC(=O)c2ccc(C(=O)Nc3cccc(C[N+](C)(C)[O-])c3)cc2)c1: > 100 µM

Supply measured TGI of C[N+](C)(C)CC(=O)N/N=C(\C(=O)Nc1ccc(Cl)cc1)C1C(=O)N(c2ccccc2)N=C1N (stereo not given) in your reply.
> 100 µM

Please give the documented TGI of C[N+]12C=CC=C1C(N1CCCC1)c1sc(-c3ccc(Cl)cc3)cc12 (stereo not given)
29.5 µM

Quote TGI reported for CC(=O)OC12CCCCC1C1(CCCC1)NC2=O (stereo not given) please.
> 100 µM

Give TGI for `COc1cc(C=Nc2ccc(Oc3ccc(Cl)cc3)c(Cl)c2)cc(OC)c1OC`
32.2 µM
